- SYSTEM NAME: human 5-HT6 receptor (Homo sapiens, UniProt P50406)
- Construct: expressed in transfected cells; host or cells: HEK293
- Sequence (P50406 whole entry): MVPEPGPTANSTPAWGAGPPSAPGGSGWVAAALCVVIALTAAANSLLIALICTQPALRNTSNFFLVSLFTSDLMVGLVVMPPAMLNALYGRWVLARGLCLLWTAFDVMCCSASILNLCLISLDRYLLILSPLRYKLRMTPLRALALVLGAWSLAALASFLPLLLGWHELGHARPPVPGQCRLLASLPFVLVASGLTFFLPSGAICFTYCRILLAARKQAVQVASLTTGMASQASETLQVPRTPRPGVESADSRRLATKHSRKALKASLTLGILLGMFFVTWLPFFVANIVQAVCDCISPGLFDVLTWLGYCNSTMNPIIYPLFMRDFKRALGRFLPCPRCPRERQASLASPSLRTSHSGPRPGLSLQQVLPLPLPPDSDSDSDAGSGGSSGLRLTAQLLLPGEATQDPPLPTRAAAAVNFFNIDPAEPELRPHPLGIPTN
- MEASUREMENT DESCRIPTION: 5-HT6 intrinsic activity assay (inhibition of 5-HT induced increase in cAMP)
- Type: cell-based
- EXPERIMENTAL PARAMETERS: read-out: fKi
Structures can show the parent of a compound that is named as a salt.
PARAMETER: pKi
Conceptually, pKi converts a concentration in mol/L into minus its log10.

{"MOLECULE": "COc1ccc(C)cc1S(=O)(=O)Nc1cc(C2=CN3CCC2CC3)c2occc2c1 [Example 33, hydrochloride]", "SYSTEM NAME": "human 5-HT6 receptor (Homo sapiens, UniProt P50406)", "PARAMETER": "pKi", "OBSERVED MEASUREMENT": 7.70}

# input I'm curious: which pKi was measured for O=S(=O)(Nc1cc(-c2cncnc2)c2occc2c1)c1ccccc1 [Example 32, hydrochloride] tested on human 5-HT6 receptor (Homo sapiens, UniProt P50406)?
# output 7.27

# input // fetch human 5-HT6 receptor (Homo sapiens, UniProt P50406) pKi for Fc1ccc(CNc2cc(N3CCNCC3)c3occc3c2)cc1F [Example 12, hydrochloride]
# output 7.06

# input Record COc1ccc(C)cc1S(=O)(=O)Nc1cc(-c2ccncc2)c2occc2c1 [Example 28] : what is its pKi with human 5-HT6 receptor (Homo sapiens, UniProt P50406)?
# output 7.18

# input Form field: pKi recorded for CNCCCN(C)c1cc(NS(=O)(=O)c2ccccc2)cc2ccoc12 [Example 1, hydrochloride] with human 5-HT6 receptor (Homo sapiens, UniProt P50406) (enter value)
# output 7.06
